Data provenance is PubChem BioAssay (NCI).

- Measurement Description: NCI Yeast Anticancer Drug Screen. Data for the cln2 rad14 strain (AID 165);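 note: 0% = growth equal to vehicle treated cultures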
- Conditions: S. cerevisiae cln2 rad14 strain, at 5.0 µM (retest, dose inferred, filed as 0.5), stronger effect = higher value
This is part of a sample that, as a whole, favours compounds with a hit. Of some 79,000 tested, about 15% had one in any assay.
# key: entry, value: growth inhibition
Answer in %, number only, no unit symbol.

Examples with their reported growth inhibition follow.
Molecule: COc1ccc2nc(NC(=O)Nc3c(Cl)cccc3Cl)sc2c1
Unit Of Measurement: %
growth inhibition: 15
//
Molecule: COc1cc(C)cc2c(-c3c(O)cc(O)c4c3C[C@H](C)N[C@H]4C)cc(-c3cc(-c4c(O)cc(O)c5c4C[C@H](C)N[C@H]5C)c4cc(C)cc(OC)c4c3O)c(O)c12
Unit Of Measurement: %
growth inhibition: 0
//
Molecule: O=C1c2ccccc2/C=C\C(c2ccccc2)=N/N1c1ccccc1Cl
Unit Of Measurement: %
growth inhibition: -2
//
Molecule: CC(C)c1ccc2c(c1)CC[C@H]1[C@](C)(C(=O)O)CCC[C@]21C
Unit Of Measurement: %
growth inhibition: -11
//
Molecule: C1=Nc2ccccc2/C1=C/c1ccccc1
Unit Of Measurement: %
growth inhibition: 27

Proceeding to the next molecule to report its growth inhibition.
Value of measured growth inhibition for the entry `CCOC(=O)C(C)(C)C` : 0
